Tested on: caspase-3/7 activity in Hep3B cell line
Assay: One-step cellular caspase-3/7 activity assay
Format: cell-based, human
Conditions: 1600 nM, 24 hours; 0 nM = 1.00
Method: Measurements of proapoptotic properties of new compounds were based on quantification of enzymatic activities of caspases, concretely caspases-3/7. Activity of cellular caspase-3/7 was measured according to Carrasco et al., 2003, BioTechniques, 34(5): 1064-67. […] The caspase-3/7 activity was measured after 6 hours using Fluoroskan Ascent microplate reader (Labsystems) at 346 nm/442 nm (excitation/emission).
In plain terms, low Relative caspase-3/7 activity in Hep3B cell line, meaning strictly below 9, gives T, and everything else gives F.

compound	label_value
COc1ccccc1-c1ccc(CNc2nc(NC3CCC(N)CC3)nc3c2ncn3C2CCCC2)cc1 (centres unmarked)	T
NC1CCC(Nc2nc(NCc3ccc(-c4cccc(F)c4)nc3)c3ncn(C4CCCC4)c3n2)CC1 (centres unmarked)	F
COc1ccccc1-c1ccc(CNc2nc(NC3CCC(N)CC3)nc3c2ncn3C2CCCC2)cn1 (centres unmarked)	T
NC1CCC(Nc2nc(NCc3ccc(-c4ccccc4O)nc3)c3ncn(C4CCCC4)c3n2)CC1 (centres unmarked)	F
CC(C)(O)CNc1nc(NCc2ccc(-c3ccco3)nc2)c2ncn(C3CCCC3)c2n1	T
NC1CCC(Nc2nc(NCc3ccc(-c4ccoc4)nc3)c3ncn(C4CCCC4)c3n2)CC1 (centres unmarked)	F

----------
Entries and their remaining activity at 1 µM
Biological target: T1, CDK5/p35 (Homo sapiens, UniProt Q00535)
T1 construct: purchased ProQinase GmbH (Freiburg, Germany)
T1 sequence (Q00535 whole entry): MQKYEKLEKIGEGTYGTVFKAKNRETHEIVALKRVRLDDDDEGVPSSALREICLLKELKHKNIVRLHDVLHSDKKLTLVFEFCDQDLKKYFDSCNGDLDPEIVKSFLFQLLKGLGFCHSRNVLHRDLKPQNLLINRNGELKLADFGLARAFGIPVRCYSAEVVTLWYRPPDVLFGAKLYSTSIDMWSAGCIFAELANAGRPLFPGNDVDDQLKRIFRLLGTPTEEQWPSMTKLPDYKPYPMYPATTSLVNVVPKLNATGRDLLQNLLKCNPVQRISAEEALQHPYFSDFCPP
T1 sequence (Q15078 whole entry partner): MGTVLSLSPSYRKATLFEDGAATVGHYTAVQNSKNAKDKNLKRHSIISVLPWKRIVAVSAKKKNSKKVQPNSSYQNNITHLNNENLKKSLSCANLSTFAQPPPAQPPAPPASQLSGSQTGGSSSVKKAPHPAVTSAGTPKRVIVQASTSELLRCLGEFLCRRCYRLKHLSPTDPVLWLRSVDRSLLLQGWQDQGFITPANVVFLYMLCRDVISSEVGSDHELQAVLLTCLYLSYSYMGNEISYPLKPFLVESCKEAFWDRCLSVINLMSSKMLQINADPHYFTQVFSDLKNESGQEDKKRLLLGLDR
Assay: Kinase inhibition assay, recombinant kinase, [γ-33P]ATP
Assay type: biochemical
Conditions: 1000 nM; read-out: Residual kinase activity, CDK5
From the text: CDK2/Cyclin E kinase was produced in Sf9 insect cells via baculoviral infection and purified on a NiNTA column (Qiagen). CDK5/p35, CDK7Cyclin H/MAT1 and CDK9/Cyclin T1 was purchased from ProQinase GmbH. […]
property: remaining activity at 1 µM (%)

compound	output_unit	quantitative_readout
NC1CCC(Nc2nc(NCc3ccc(-c4ccccc4O)nc3)c3ncn(C4CCCC4)c3n2)CC1 (stereo not shown) [BP20]	%	19.4
OC1CCC(Nc2nc(NCc3ccc(-c4ccco4)nc3)c3ncn(C4CCCC4)c3n2)CC1 (stereo not shown) [BP21]	%	23.4
NC1CCC(Nc2nc(NCc3ccc(-c4ccsc4)nc3)c3ncn(C4CCCC4)c3n2)CC1 (stereo not shown) [BP35]	%	8.7
NC1CCC(Nc2nc(NCc3ccc(-c4cccc(F)c4)nc3)c3ncn(C4CCCC4)c3n2)CC1 (stereo not shown) [BP19]	%	25.6
NC1CCC(Nc2nc(NCc3ccc(-c4ccoc4)nc3)c3ncn(C4CCCC4)c3n2)CC1 (stereo not shown) [BP36]	%	2.95
NC1CCC(Nc2nc(NCc3ccc(-c4ccco4)nc3)c3ncn(C4CCCC4)c3n2)CC1 (stereo not shown) [BP14]	%	24.8
CC(C)(O)CNc1nc(NCc2ccc(-c3ccco3)nc2)c2ncn(C3CCCC3)c2n1 [BP117]	%	39.6
Nc1ccccc1-c1ccc(CNc2nc(NC3CCC(N)CC3)nc3c2ncn3C2CCCC2)cn1 (stereo not shown) [BP22]	%	89
NC1CCC(Nc2nc(NCc3ccc(-c4cccs4)nc3)c3ncn(C4CCCC4)c3n2)CC1 (stereo not shown) [BP30]	%	4.31
COc1ccccc1-c1ccc(CNc2nc(NC3CCC(N)CC3)nc3c2ncn3C2CCCC2)cn1 (stereo not shown) [BP18]	%	23.6

Values were extracted from patent US20150368248A1.
